Origin of measurements: patent US20050191348A1

System: sAPPα
Assay: sAPPα release into medium of SH-SY5Y neuroblastoma cells
Type: cell-based, human
Details: 1 μM, 3 h, SH-SY5Y conditioned media, mean ± SE of three experiments
Marks after values point to notes of the source that are not given here.
Listed next: entries and their corresponding sAPPα secretion (fold/basal).

Reference set, count: 5
[
  {
    "Molecule": "C#CCN[C@@H]1CCc2ccc(OC(=O)N(C)CC)cc21",
    "sAPPα secretion (fold/basal)": "2.86 ± 0.35^b fold/basal"
  },
  {
    "Molecule": "C#CCN[C@H]1CCc2ccc(OC(=O)N(C)CC)cc21",
    "sAPPα secretion (fold/basal)": "2.76 ± 0.36^b fold/basal"
  },
  {
    "Molecule": "C#CCN(C)[C@H](C)Cc1ccccc1",
    "sAPPα secretion (fold/basal)": "2.03 ± 0.21^c fold/basal"
  },
  {
    "Molecule": "C#CCN[C@@H]1CCc2ccccc21 [TVP1022]",
    "sAPPα secretion (fold/basal)": "2.43 ± 0.27^c fold/basal"
  },
  {
    "Molecule": "NC1CCc2ccccc21 (stereo not drawn)",
    "sAPPα secretion (fold/basal)": "1.23 ± 0.32 fold/basal"
  }
]

Okay, now this molecule:
State the recorded sAPPα secretion (fold/basal) for this entry: C#CCN[C@@H]1CCc2ccccc21 [Rasagiline, N-propargyl-(1R)-aminoindan]
2.97 ± 0.15^b fold/basal

---

Biological target: rat brain MAO-B (Rattus norvegicus)
Sequence (P19643 1-520): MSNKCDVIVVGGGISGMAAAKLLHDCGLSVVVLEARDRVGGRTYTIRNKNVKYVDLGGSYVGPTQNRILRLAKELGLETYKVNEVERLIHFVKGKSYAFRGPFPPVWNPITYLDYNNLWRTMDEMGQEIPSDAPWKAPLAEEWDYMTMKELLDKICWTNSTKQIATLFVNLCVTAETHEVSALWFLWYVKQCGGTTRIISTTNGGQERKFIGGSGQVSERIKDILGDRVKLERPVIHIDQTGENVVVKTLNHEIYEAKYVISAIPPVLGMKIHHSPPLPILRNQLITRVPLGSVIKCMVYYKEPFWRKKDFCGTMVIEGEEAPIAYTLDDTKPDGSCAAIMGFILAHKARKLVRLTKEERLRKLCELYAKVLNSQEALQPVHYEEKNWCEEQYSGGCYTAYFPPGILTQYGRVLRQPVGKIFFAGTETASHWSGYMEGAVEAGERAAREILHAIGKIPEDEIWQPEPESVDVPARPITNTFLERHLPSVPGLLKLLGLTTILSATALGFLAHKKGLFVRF
pIC50: −log10 of the molar value.
Assay Endpoint: pIC50

Record C#CCN [propargylamine] : what is its pIC50 with rat brain MAO-B (Rattus norvegicus)?
~5.00
